measurement name: melting point

Example cases with answers are listed next.
compound | reported result
O=C1Nc2c(F)cccc2C12COc1cc3c(cc12)CCO3 (stereo not drawn) | > 250 °C
COc1cc(Cl)ccc1C(=O)NC1COCCn2c1nc(-c1ccncn1)cc2=O (racemic) | 274 to 276 °C

Kindly review the next compound as well.
Fill in the blank: the reported melting point of CNc1nc(-c2cccc(NC(=O)c3ccc(OC)c(OC4CCCC4)c3)c2)c2cc(OC)c(OC)cc2n1 is ____.
129 to 131 °C

----------
Quick reference for melting point among some compounds

Example cases with answers are listed next.
compound | melting point
CCOC(=O)c1ccc(OCc2ccccc2)c(OCc2ccccc2)c1 | 68 to 69 °C
CCCn1cnc2c1c(=O)n(CCCC(C)(O)C#CCN1CCN(C)CC1)c(=O)n2C (stereo not given) | 168 °C
O=Cc1c2ccccc2cc2c(Cl)cccc12 | 129 to 131 °C
CC1=Nc2c(C)nn(C)c2C2=NC(C)(C)CN12 | 148 to 150 °C

Kindly review the next compound as well.
Fill in the blank: the reported melting point of CCC(=O)c1cc(-c2ccccc2)no1 is ____.
111 to 112 °C

----------
Quick reference for melting point among some molecules

Example cases with answers are listed next.
molecule | melting point
O=C1c2c(-c3ccccc3)noc2CCC1CCCN1CCC(n2c(=O)[nH]c3ccccc32)CC1 (stereo not given) | 212 to 218 °C
Cc1ccc(C2CCN(C(=O)Nc3ccc4nc(CN(C(C)C)C(C)C)ccc4c3)CC2)cc1 | 184 to 186 °C
CCOC(=O)c1c(CCO)nc2cc(OC)c(OC)cc2c1-c1ccc(OC)c(OC)c1 | 150 to 151 °C

Fill in the blank: the reported melting point of CCCCC(CC)n1c(CC)nc2c(-c3c(C)cc(C)cc3C)ncnc21 (stereo not given) is ____.
99 to 100 °C

Fill in the blank: the reported melting point of Cc1ccc(F)cc1C(=O)Nc1ccc(C(=O)N2Cc3cccn3Cc3ccccc32)c(Cl)c1 is ____.
191 to 195 °C

----------
Quick reference for melting point among some compounds

Example cases with answers are listed next.
compound | melting point
O=[N+]([O-])c1ccc(Cn2c(S(=O)(=O)C(F)(F)C(F)F)nc(-c3ccc(F)cc3)c2-c2ccc(F)cc2)cc1 | 169 to 170 °C
O=Cc1cn(Cc2ccc(Cl)cc2)c2ccccc12 | 122 °C

Fill in the blank: the reported melting point of CN(c1cccc2cc(C3=NCC(C(N)=O)S3)[nH]c12)S(=O)(=O)c1cccs1 (stereo not drawn) is ____.
230 to 232 °C

Fill in the blank: the reported melting point of CC(=O)N1CCN(c2ccc(Nc3nccc(-c4sc(N(C)c5cccnc5)nc4C)n3)cc2)CC1 is ____.
205 to 206 °C

Fill in the blank: the reported melting point of CCCCc1cnc(-c2ccc(C#N)cc2)nc1 is ____.
60.9 to 61.8 °C

Fill in the blank: the reported melting point of C=C(Cl)Cc1cc2c(C)cc(=O)oc2c(C)c1O is ____.
135 to 163 °C

Fill in the blank: the reported melting point of CCCCCCC(C)(C)c1cc(O)c2c(c1)OC(C)(C)[C@@H]1CCC(=O)C[C@H]21 (relative stereo) is ____.
151 to 153 °C

Fill in the blank: the reported melting point of COc1ccc2c(c1)c(-c1cc3nccnc3[nH]1)cn2CC(=O)N1CCOCC1 is ____.
263 to 267 °C

----------
measurement name: melting point

compound | measurement name | reported result
O=C(c1ccccc1Cl)c1ccccc1C#CCN1C(=O)c2ccccc2C1=O | melting point | 149 to 150 °C
CCONC(=O)c1ccc(-c2cccc(CN(C)CCCc3ccccc3)c2)cn1 | melting point | 50 to 55 °C
CCOC(=O)c1c(Nc2ccccc2)nc2ccc(Br)cc2c1Cl | melting point | 171 to 172 °C

Fill in the blank: the reported melting point of CCc1cc2c(c3ccc(O)cc13)OCc1cc(O)ccc1-2 is ____.
184 to 192 °C

Fill in the blank: the reported melting point of COC(=O)c1cnc2cccc(OC)c2c1 is ____.
102 °C

Fill in the blank: the reported melting point of OCc1ccc(C2=NOC(c3cc(Cl)cc(Cl)c3)(C(F)(F)F)C2)cc1 (stereo not drawn) is ____.
108 to 110 °C

Fill in the blank: the reported melting point of CC(C)OC(=O)Nc1ccc(Cl)c(-c2ccnc3c(C(=O)c4cccs4)cnn23)c1 is ____.
234 to 236 °C

Fill in the blank: the reported melting point of COc1nccc2c1ccn2-c1ccc(C(F)(F)F)cc1Cl is ____.
112 to 115 °C

Fill in the blank: the reported melting point of COc1ccc(-c2ccc(C)n2CC[C@H]2C[C@H](O)CC(=O)O2)cc1 (relative stereo) is ____.
95 °C

Fill in the blank: the reported melting point of CN1C(=O)C(C)(CCN2CCN(c3cccc4ccccc34)CC2)c2cc(F)ccc21 (stereo not drawn) is ____.
144 to 146 °C

Fill in the blank: the reported melting point of COc1ccc(N2CCN(c3c(C)c(C)c4c(c3C)C(c3cccc5ccccc35)C(C)(C)O4)CC2)cc1 (stereo not drawn) is ____.
165 to 166 °C

Fill in the blank: the reported melting point of CC(C#Cc1cccc(C2=NOC(c3ccc(F)cc3)C2)c1)N(O)C(N)=O (stereo not drawn) is ____.
132 to 133 °C

Fill in the blank: the reported melting point of O=C(Oc1ccccc1)N1CCC(c2noc3cccc(F)c23)CC1 is ____.
108 to 110 °C

----------
Quick reference for melting point among some molecules

Example cases with answers are listed next.
molecule | reported result
C=CCN(CC=C)Cc1noc(-c2ncn3c2[C@@H]2CCN2C(=O)c2c(Cl)cccc2-3)n1 | 190 to 192 °C
COc1cc(C(=O)N2Cc3ccc(C(=O)NCc4ccc5c(c4)OCO5)n3Cc3ccccc32)ccc1-c1ccccc1C | 167 to 168 °C
Nc1c(-c2cc(Cl)ccc2O)c2c(C(F)(F)F)cccc2[nH]c1=O | 267 to 268 °C
Cc1nn(-c2ccc(C(F)(F)F)cn2)cc1C=O | 226 to 227 °C
NS(=O)(=O)c1c(Cl)cccc1CN1CCOC1=O | 200 to 201 °C
O=C(O)c1c(-c2ccccc2)csc1N1C(=O)c2ccccc2C1=O | 198 to 199 °C

Kindly review the next molecule as well.
Fill in the blank: the reported melting point of Cc1c(NC(=O)c2ccc(CC(=O)C3CCCO3)cc2)ccc2cc(CN3CCCC3)cnc12 (configuration not stated) is ____.
102 °C

----------
Quick reference for melting point among some compounds

compound | melting point
O=[N+]([O-])c1cc(Cl)c(N=C=S)c(Cl)c1 | 74 to 77 °C
C[C@H](CSC(=O)C(C)(C)C)C(=O)N(CC(=O)O)C1CCCC1 | 155 to 156 °C
CS(=O)(=O)c1ccc(-n2nc(CNC(=O)Nc3ccc(C(F)(F)F)cc3)cc2-c2ccccc2)cc1 | 129 to 132 °C
CCc1nc2c(Cl)cc(F)c(-n3c(=O)cc(C(F)(F)F)[nH]c3=O)c2s1 | 178 to 180 °C

Fill in the blank: the reported melting point of CCOC(=O)C1C=NC(C)=C(c2ccccc2)C1=O (stereo not given) is ____.
178 to 180 °C

----------
Quick reference for melting point among some molecules

Example cases with answers are listed next.
molecule | melting point
CCOc1cc(-n2c(=O)cc(C(F)(F)F)n(C)c2=O)c(F)cc1Br | 128 °C
CC(=O)c1c(N(C)C)nn2ccccc12 | 59.5 to 60 °C
CSCC(=O)Nc1cc(-c2c(-c3ccc(F)c(C)c3)nc3cccnn23)ccn1 | 155 to 156 °C
Cc1ncn(-c2ccccc2C#N)n1 | 109 to 110 °C
CC(=Cc1ccccc1)n1c(=O)n(CCCCCl)c2ccccc21 | 90 °C

Fill in the blank: the reported melting point of COc1ccc(C(=O)Nc2ccccc2)cc1NS(=O)(=O)c1cccc(Cl)c1 is ____.
197 to 199 °C

Fill in the blank: the reported melting point of Cc1ncccc1CC(=NC#N)NC1CCc2cc(F)ccc21 (stereo not given) is ____.
148 to 149 °C

Fill in the blank: the reported melting point of Nc1c(-c2cc(Cl)ccc2O)c2c(Cl)c(Cl)ccc2[nH]c1=O is ____.
263 to 265 °C

Fill in the blank: the reported melting point of CN(C)CCc1[nH]c2ccccc2c1CSc1ccc(Cl)cc1 is ____.
115 to 117 °C

Fill in the blank: the reported melting point of CC(C)(C)C1=CC(=Nc2ccc(CCC(=O)O)cc2)C=C(C(C)(C)C)C1=O is ____.
165 to 167 °C

Fill in the blank: the reported melting point of Nc1ccc(S(=O)(=O)C(F)(F)C(F)Cl)cc1Cl (stereo not given) is ____.
98 to 99 °C

Fill in the blank: the reported melting point of O=C(CCl)NC(C(=O)O)c1cscn1 (stereo not given) is ____.
193 to 195 °C

Fill in the blank: the reported melting point of CC(=O)Nc1ccc(C=CC2=NNC(=O)C(C)(C)C2)cc1 is ____.
255 to 257 °C

Fill in the blank: the reported melting point of Cc1nc2c3c(c(C(=O)N(C)CCO)cc2n1C)CCC1(Cc2ccccc2C1)N3 is ____.
194 to 195 °C

Fill in the blank: the reported melting point of O=C1c2c(Cl)cccc2-c2n[nH]c3cccc1c23 is ____.
310 °C

Fill in the blank: the reported melting point of O=C(NCc1ccccc1)c1cccc(-c2nc(=O)c3ccccc3s2)n1 is ____.
197 to 198 °C
